Answer each item with its documented glycan array binding signal (z-score).
EXPERIMENTAL SYSTEM: GalNAc(b1-3)Gal(a1-4)Gal(b1-4)GlcNAc
TEST SUMMARY: glycan array binding signal (z-score within array); higher = stronger binding
RUN CONDITIONS: glycan notation: IUPAC condensed, linker removed
Many of the other results were omitted from the sample, so the strongest signals are more common in it than they were.

query: # lookup: glycan array binding signal (z-score) of CC1G-11630 (Coprinopsis cinerea), A8P462 (protein) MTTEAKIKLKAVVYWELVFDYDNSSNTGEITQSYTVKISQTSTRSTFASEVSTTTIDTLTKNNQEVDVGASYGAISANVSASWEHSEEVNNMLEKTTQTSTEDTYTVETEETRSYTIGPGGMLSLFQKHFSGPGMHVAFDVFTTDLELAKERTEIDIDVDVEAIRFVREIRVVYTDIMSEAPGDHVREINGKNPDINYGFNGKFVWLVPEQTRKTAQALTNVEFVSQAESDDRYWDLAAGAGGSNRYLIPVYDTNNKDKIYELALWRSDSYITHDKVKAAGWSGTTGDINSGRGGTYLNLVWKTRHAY
result: 0.165

query: # lookup: glycan array binding signal (z-score) of HHL-1 (Homo sapiens), P07306 (protein) TKEYQDLQHLDNEESDHHQLRKGPPPPQPLLQRLCSGPRLLLLSLGLSLLLLVVVCVIGSQNSQLQEELRGLRETFSNFTASTEAQVKGLSTQGGNVGRKMKSLESQLEKQQKDLSEDHSSLLLHVKQFVSDLRSLSCQMAALQGNGSERTCCPVNWVEHERSCYWFSRSGKAWADADNYCRLEDAHLVVVTSWEEQKFVQHHIGPVNTWMGLHDQNGPWKWVDGTDYETGFKNWRPEQPDDWYGHGLGGGEDCAHFTDDGRWNDDVCQRPYRWVCETELDKASQEPPLL
result: 5.53

query: # lookup: glycan array binding signal (z-score) of FBG4 (Homo sapiens), Q96EF6 (protein) MGARLSRRRLPADPSLALDALPPELLVQVLSHVPPRSLVTRCRPVCRAWRDIVDGPTVWLLQLARDRSAEGRALYAVAQRCLPSNEDKEEFPLCALARYCLRAPFGRNLIFNSCGEQGFRGWEVEHGGNGWAIEKNLTPVPGAPSQTCFVTSFEWCSKRQLVDLVMEGVWQELLDSAQIEICVADWWGARENCGCVYQLRVRLLDVYEKEVVKFSASPDPVLQWTERGCRQVSHVFTNFGKGIRYVSFEQYGRDVSSWVGHYGALVTHSSVRVRIRLS
result: -0.171

query: # lookup: glycan array binding signal (z-score) of LEA (Lycopersicon esculentum) (protein) NEVFDVPMNETIGVESINASVGGYPRCGAQGDGGNCPSGMCCSVWGWCGKTYGYCAPQNCQKQCPAPYPEGRCGWQADGKSCPNGKCCSYGGWCGTTSDYCARQNCQKQCILPSPPPPPPPPPGFPRPECGLQKNGERCTKPGECCSIWGLCGATYKYCDPQHCQKQCSAPFPPGRCGWQADGRPCPTGQCCSFSGWCGTTSAHCTYPQCVSQCNDPRFPSSLNNRIQSFML
result: 2.55
